# Test system: HepG2
# Protocol notes: Cytotoxicity against human HepG2 cells assessed as reduction in cell viability incubated for 48 hrs by MTT assay
# Type: functional, cell-based
# Condition: HepG2, 48 h
pIC50: −log10 of the molar value.
Parameter pIC50: see the listing below.
Test readout: pIC50

{"columns": ["Compound string", "Study target", "Test readout", "Numeric value"],
 "data": [
  ["COc1ccccc1Cn1n[n+](C)c2c1C(C)(C)[C@@H]1CC[C@]3(C)[C@H](CC[C@@H]4[C@H]5[C@H]6OC[C@@]5(CCC6(C)C)CC[C@]43C)[C@@]1(C)C2.[I-]", "HepG2", "pIC50", 5.82],
  ["COc1ccccc1CCn1nnc2c1C(C)(C)[C@@H]1CC[C@]3(C)[C@H](CC[C@@H]4[C@H]5[C@H]6OC[C@@]5(CCC6(C)C)CC[C@]43C)[C@@]1(C)C2", "HepG2", "pIC50", 4.48],
  ["COc1ccc(CCn2nnc3c2C(C)(C)[C@@H]2CC[C@]4(C)[C@H](CC[C@@H]5[C@H]6[C@H]7OC[C@@]6(CCC7(C)C)CC[C@]54C)[C@@]2(C)C3)cc1", "HepG2", "pIC50", 4.44],
  ["COc1cccc(CCn2nnc3c2C(C)(C)[C@@H]2CC[C@]4(C)[C@H](CC[C@@H]5[C@H]6[C@H]7OC[C@@]6(CCC7(C)C)CC[C@]54C)[C@@]2(C)C3)c1", "HepG2", "pIC50", 4.50]
]}

----------
# Test system: HeLa
# Protocol notes: Cytotoxicity against human HeLa cells assessed as reduction in cell viability incubated for 48 hrs by MTT assay
# Assay type: functional, cell-based
# reported IC50; entries follow

{"columns": ["Compound string", "IC50"],
 "data": [
  ["C[n+]1nn(Cc2ccccc2F)c2c1C[C@]1(C)[C@H]3CC[C@@H]4[C@H]5[C@H]6OC[C@@]5(CCC6(C)C)CC[C@@]4(C)[C@]3(C)CC[C@H]1C2(C)C", "2.42 µM"],
  ["CCCCn1nnc2c1C(C)(C)[C@@H]1CC[C@]3(C)[C@H](CC[C@@H]4[C@H]5[C@H]6OC[C@@]5(CCC6(C)C)CC[C@]43C)[C@@]1(C)C2", "6.26 µM"],
  ["COC(Cn1nnc2c1C(C)(C)[C@@H]1CC[C@]3(C)[C@H](CC[C@@H]4[C@H]5[C@H]6OC[C@@]5(CCC6(C)C)CC[C@]43C)[C@@]1(C)C2)OC", "> 80 µM"],
  ["COc1ccc(Cn2nnc3c2C(C)(C)[C@@H]2CC[C@]4(C)[C@H](CC[C@@H]5[C@H]6[C@H]7OC[C@@]6(CCC7(C)C)CC[C@]54C)[C@@]2(C)C3)cc1", "12.7 µM"],
  ["C[n+]1nn(Cc2ccc(Cl)cc2)c2c1C[C@]1(C)[C@H]3CC[C@@H]4[C@H]5[C@H]6OC[C@@]5(CCC6(C)C)CC[C@@]4(C)[C@]3(C)CC[C@H]1C2(C)C", "2.45 µM"]
]}

----------
Item-by-item account of log10 IC50
# Tested on: HeLa
# Protocol notes: Cytotoxicity against human HeLa cells assessed as reduction in cell viability incubated for 48 hrs by MTT assay
# Format: functional, cell-based
Test readout: log10 IC50 (log10 of the value in µM)

{"columns": ["Compound string", "Test readout", "Numeric value"],
 "data": [
  ["COC(Cn1n[n+](C)c2c1C(C)(C)[C@@H]1CC[C@]3(C)[C@H](CC[C@@H]4[C@H]5[C@H]6OC[C@@]5(CCC6(C)C)CC[C@]43C)[C@@]1(C)C2)OC", "log10 IC50", 0.73],
  ["C[n+]1nn(Cc2cccc(F)c2)c2c1C[C@]1(C)[C@H]3CC[C@@H]4[C@H]5[C@H]6OC[C@@]5(CCC6(C)C)CC[C@@]4(C)[C@]3(C)CC[C@H]1C2(C)C", "log10 IC50", 0.44],
  ["CC1(C)CC[C@]23CC[C@]4(C)[C@H](CC[C@@H]5[C@@]6(C)Cc7nnn(Cc8ccc(F)cc8F)c7C(C)(C)[C@@H]6CC[C@]54C)[C@H]2[C@H]1OC3", "log10 IC50", 1.01],
  ["COc1ccccc1Cn1nnc2c1C(C)(C)[C@@H]1CC[C@]3(C)[C@H](CC[C@@H]4[C@H]5[C@H]6OC[C@@]5(CCC6(C)C)CC[C@]43C)[C@@]1(C)C2", "log10 IC50", 1.62],
  ["COc1ccc(Cn2n[n+](C)c3c2C(C)(C)[C@@H]2CC[C@]4(C)[C@H](CC[C@@H]5[C@H]6[C@H]7OC[C@@]6(CCC7(C)C)CC[C@]54C)[C@@]2(C)C3)cc1", "log10 IC50", 0.39],
  ["C[n+]1nn(Cc2ccc(Cl)c(Cl)c2)c2c1C[C@]1(C)[C@H]3CC[C@@H]4[C@H]5[C@H]6OC[C@@]5(CCC6(C)C)CC[C@@]4(C)[C@]3(C)CC[C@H]1C2(C)C", "log10 IC50", 0.45],
  ["C[n+]1nn(CCc2c[nH]c3ccccc23)c2c1C[C@]1(C)[C@H]3CC[C@@H]4[C@H]5[C@H]6OC[C@@]5(CCC6(C)C)CC[C@@]4(C)[C@]3(C)CC[C@H]1C2(C)C", "log10 IC50", 0.50],
  ["CC1(C)CC[C@]23CC[C@]4(C)[C@H](CC[C@@H]5[C@@]6(C)Cc7nnn(CCc8c[nH]c9ccccc89)c7C(C)(C)[C@@H]6CC[C@]54C)[C@H]2[C@H]1OC3", "log10 IC50", 1.34],
  ["CC1(C)CC[C@]23CC[C@]4(C)[C@H](CC[C@@H]5[C@@]6(C)Cc7nnn(Cc8ccc(Cl)cc8)c7C(C)(C)[C@@H]6CC[C@]54C)[C@H]2[C@H]1OC3", "log10 IC50", 1.71],
  ["COc1ccccc1CCn1n[n+](C)c2c1C(C)(C)[C@@H]1CC[C@]3(C)[C@H](CC[C@@H]4[C@H]5[C@H]6OC[C@@]5(CCC6(C)C)CC[C@]43C)[C@@]1(C)C2", "log10 IC50", 0.22],
  ["C[n+]1nn(Cc2cccc(Cl)c2)c2c1C[C@]1(C)[C@H]3CC[C@@H]4[C@H]5[C@H]6OC[C@@]5(CCC6(C)C)CC[C@@]4(C)[C@]3(C)CC[C@H]1C2(C)C", "log10 IC50", 0.32],
  ["CC1(C)CC[C@]23CC[C@]4(C)[C@H](CC[C@@H]5[C@@]6(C)CC[C@H](O)C(C)(C)[C@@H]6CC[C@]54C)[C@H]2[C@H]1OC3", "log10 IC50", 1.66],
  ["CC1(C)CC[C@]23CC[C@]4(C)[C@H](CC[C@@H]5[C@@]6(C)Cc7nnn(Cc8c(F)cccc8Cl)c7C(C)(C)[C@@H]6CC[C@]54C)[C@H]2[C@H]1OC3", "log10 IC50", 1.37],
  ["CC1(C)CC[C@]23CC[C@]4(C)[C@H](CC[C@@H]5[C@@]6(C)Cc7nnn(CC(c8ccccc8)c8ccccc8)c7C(C)(C)[C@@H]6CC[C@]54C)[C@H]2[C@H]1OC3", "log10 IC50", 1.64],
  ["C[n+]1nn(Cc2ccc(F)cc2)c2c1C[C@]1(C)[C@H]3CC[C@@H]4[C@H]5[C@H]6OC[C@@]5(CCC6(C)C)CC[C@@]4(C)[C@]3(C)CC[C@H]1C2(C)C", "log10 IC50", 0.48]
]}
